The origin of these recorded values is the supplement of paper PMC8975748.

Answer each item with its documented z-score of subpopulation abundance.
Tested on: Saccharomyces cerevisiae BY4741 SeMeCo community
assay.remarks: z-score of subpopulation abundance vs DMSO median, subpopulation auxotrophic for HLUM; higher = larger share of this subpopulation than in DMSO controls
measurement.context: 10 µM; 24 h; SM minimal medium; subpopulation (auxotrophy): HLUM
Where a name gives a salt, the structure may show the parent alone.

input: Need z-score of subpopulation abundance, item "Cc1ccc(-c2cc(C(F)(F)F)nn2-c2ccc(S(N)(=O)=O)cc2)cc1"
output: -0.44

input: Item under review: CCN(CC)CCOCCOC(=O)C1(c2ccccc2)CCCC1 [Pentoxyverine Citrate] . Reported z-score of subpopulation abundance?
output: -0.26

input: // lookup z-score of subpopulation abundance for "O=C(NCCN1CCOCC1)c1ccc(Cl)cc1"
output: 0.73

input: Consider the molecule COc1ccnc(C[S+]([O-])c2nc3cc(OC(F)F)ccc3[nH]2)c1OC (configuration not stated) [Pantoprazole sodium] and give its measured z-score of subpopulation abundance.
output: -0.49

input: Recorded z-score of subpopulation abundance of COc1c(N2CCNC(C)C2)c(F)cc2c(=O)c(C(=O)O)cn(C3CC3)c12 (configuration not stated) , please.
output: -0.38

input: Reported z-score of subpopulation abundance, molecule Cc1onc(-c2ccccc2Cl)c1C(=O)N[C@@H]1C(=O)N2[C@@H]1SC(C)(C)[C@@H]2C(=O)O [Cloxacillin Sodium] : ____
output: 1.38

input: Recorded z-score of subpopulation abundance of O=C(O)C1=C(CSc2nnnn2CS(=O)(=O)O)CS[C@@H]2[C@H](NC(=O)[C@H](O)c3ccccc3)C(=O)N12 [Cefonicid sodium] , please.
output: 0.08

input: Value lookup for z-score of subpopulation abundance; key = Cc1c(C(N)=O)cc([N+](=O)[O-])cc1[N+](=O)[O-] [Dinitolmide]
output: 0.38

input: Could you tell me which z-score of subpopulation abundance is on file for COC(=O)C1=C(C)NC(C)=C(C(=O)OCCN2CCN(C(c3ccccc3)c3ccccc3)CC2)C1c1cccc([N+](=O)[O-])c1 (configuration not stated) [Manidipine 2HCl] ?
output: 0.77

input: Item CCC(C)(C)c1ccc(CC(C)CN2C[C@@H](C)O[C@@H](C)C2)cc1 (some centres not stated) [Amorolfine HCl] has what recorded z-score of subpopulation abundance?
output: 5.77

input: Given the molecule "CCOc1ccc(NC(C)=O)cc1" , what is its reported z-score of subpopulation abundance?
output: 0.17

input: // z-score of subpopulation abundance lookup, key: CCCCOc1cc(C(=O)NCCN(CC)CC)c2ccccc2n1 [Dibucaine HCl]
output: -0.06

input: Please give the measured z-score of subpopulation abundance for this molecule: "C[C@]12CC[C@@H]3c4ccc(O)cc4CC[C@H]3[C@@H]1CCC2=O"
output: -0.85

input: Param item = CCOC(=O)c1ccc(N)cc1 [Benzocaine hydrochloride] ; retrieve measured z-score of subpopulation abundance.
output: 0.01

input: For the molecule "CO[C@H]1C[C@@H]2CC[C@@H](C)[C@@](O)(O2)C(=O)C(=O)N2CCCC[C@H]2C(=O)O[C@H]([C@H](C)C[C@@H]2CC[C@@H](OC(=O)C(C)(CO)CO)[C@H](OC)C2)CC(=O)[C@H](C)/C=C(\C)[C@@H](O)[C@@H](OC)C(=O)[C@H](C)C[C@H](C)/C=C/C=C/C=C/1C" , what z-score of subpopulation abundance is on record?
output: 31.6

input: What does the record list as z-score of subpopulation abundance for CCOC(=O)c1ccc(N)cc1 [Benzocaine] ?
output: -0.38

input: Field request: z-score of subpopulation abundance | item: CCCN[C@H]1CCc2nc(N)sc2C1 [Pramipexole]
output: 0.18

----------
Test system: Saccharomyces cerevisiae BY4741 SeMeCo community
assay.remarks: z-score of subpopulation abundance vs DMSO median, subpopulation auxotrophic for LUM; higher = larger share of this subpopulation than in DMSO controls
measurement.context: 10 µM; 24 h; SM minimal medium; subpopulation (auxotrophy): LUM
Where a name gives a salt, the structure may show the parent alone.
Please respond with reported z-score of subpopulation abundance for every item in the list.
Answer with the value's number alone.

input: Bench note: what z-score of subpopulation abundance did COc1ccnc(C[S+]([O-])c2nc3cc(-n4cccc4)ccc3[nH]2)c1C (stereo unspecified) [Ilaprazole] show?
output: -0.52

input: Entry CCCCc1oc2ccc(NS(C)(=O)=O)cc2c1C(=O)c1ccc(OCCCN(CCCC)CCCC)cc1 [Dronedarone HCl] has what z-score of subpopulation abundance?
output: 0.59

input: Query (compound): COc1ccnc(C[S+]([O-])c2nc3cc(OC(F)F)ccc3[nH]2)c1OC (stereo unspecified) [Pantoprazole sodium] ; field requested: z-score of subpopulation abundance
output: 0

input: What z-score of subpopulation abundance value was documented for this compound, "O=C(CCCN1CC=C(n2c(=O)[nH]c3ccccc32)CC1)c1ccc(F)cc1" ?
output: 0.57

input: Which z-score of subpopulation abundance value is on record for "CC[C@@H]1/C=C(\C)C[C@H](C)C[C@H](OC)[C@H]2O[C@@](O)(C(=O)C(=O)N3CCCC[C@H]3C(=O)O[C@H](/C(C)=C/[C@@H]3CC[C@@H](O)[C@H](OC)C3)[C@H](C)[C@@H](O)CC1=O)[C@H](C)C[C@@H]2OC" ?
output: 2.23

input: Record request: z-score of subpopulation abundance value, item CC1(C)S[C@@H]2[C@H](NC(=O)[C@H](N)c3ccc(O)cc3)C(=O)N2[C@H]1C(=O)O [Amoxicillin trihydrate]
output: 0.38

----------
Answer each item with its documented z-score of subpopulation abundance.
System: Saccharomyces cerevisiae BY4741 SeMeCo community
assay.remarks: z-score of subpopulation abundance vs DMSO median, subpopulation auxotrophic for HLU; higher = larger share of this subpopulation than in DMSO controls
measurement.context: 10 µM; 24 h; SM minimal medium; subpopulation (auxotrophy): HLU
Where a name gives a salt, the structure may show the parent alone.
Respond with the number and no other words.

input: # query: z-score of subpopulation abundance of entry CO/N=C(\C(=O)N[C@@H]1C(=O)N2C(C(=O)O)=C(CSc3nnnn3C)CS[C@H]12)c1csc(N)n1 [Cefmenoxime hydrochloride]
output: -0.51

input: Consider the compound CC1=Nc2ccc(Cl)cc2S(=O)(=O)N1 [Diazoxide] and give its measured z-score of subpopulation abundance.
output: -0.88

input: So what's the measured z-score of subpopulation abundance for this one? Cn1nnnc1SCC1=C(C(=O)O)N2C(=O)[C@@H](NC(=O)[C@H](OC=O)c3ccccc3)[C@H]2SC1 [Cefamandole nafate]
output: 0.38

input: // returns reported z-score of subpopulation abundance for input CN(C)CCOc1ccc(/C(=C(/CCCl)c2ccccc2)c2ccccc2)cc1 [Toremifene Citrate]
output: 1.1

input: Fill in the blank: the reported z-score of subpopulation abundance of "Cc1cccc(Nc2ccccc2C(=O)O)c1C" is ____.
output: -0.38

input: Please report the recorded z-score of subpopulation abundance for CN(C)[C@@H]1C(=O)C(C(N)=O)=C(O)[C@@]2(O)C(=O)C3=C(O)c4c(O)ccc(Cl)c4[C@@H](O)[C@H]3C[C@@H]12 [Demeclocycline HCl] .
output: -0.4

input: Which value of z-score of subpopulation abundance has been reported for "Cc1nnc(SCC2=C(C(=O)O)N3C(=O)[C@@H](NC(=O)Cn4cc(Cl)c(=O)c(Cl)c4)[C@H]3SC2)s1" in the records?
output: -1.4

input: I'd like to know its z-score of subpopulation abundance. The compound in question is CC[C@@]1(O)C(=O)OCc2c1cc1n(c2=O)Cc2cc3cc(O)ccc3nc2-1 [(S)-10-Hydroxycamptothecin]
output: 0.14

input: Query: z-score of subpopulation abundance; subject: CCN(CC)CCNC(=O)c1cc(Cl)c(N)cc1OC [Metoclopramide HCl]
output: -0.43

input: Need z-score of subpopulation abundance, item CCN(CC)CCOc1ccc(C(=C(Cl)c2ccccc2)c2ccccc2)cc1 [Clomifene citrate]
output: 2.19

input: Form field: reported z-score of subpopulation abundance of "O=C1OCCN1/N=C/c1ccc([N+](=O)[O-])o1"
output: -2.4

input: # get_value(readout='z-score of subpopulation abundance', item= "O=C(Cn1ccnc1[N+](=O)[O-])NCc1ccccc1" )
output: -0.74

input: Any idea what its z-score of subpopulation abundance is? The compound is "CC[C@H](C)[C@H](N)C1=N[C@H](C(=O)N[C@@H](CC(C)C)C(=O)N[C@H](CCC(=O)O)C(=O)N[C@H](C(=O)N[C@H]2CCCCNC(=O)[C@H](CC(N)=O)NC(=O)[C@@H](CC(=O)O)NC(=O)[C@H](Cc3cnc[nH]3)NC(=O)[C@@H](Cc3ccccc3)NC(=O)[C@H]([C@@H](C)CC)NC(=O)[C@@H](CCCN)NC2=O)[C@@H](C)CC)CS1"
output: 3.61

input: // returns reported z-score of subpopulation abundance for input CCOC(=O)c1ccc(N)cc1 [Benzocaine]
output: -0.97

input: Data request, read-out z-score of subpopulation abundance, for "CC(C)NC(=N)NC(=N)Nc1ccc(Cl)cc1"
output: -0.46

input: z-score of subpopulation abundance for "C#C[C@]1(O)CC[C@H]2[C@@H]3CCC4=CCCC[C@@H]4[C@H]3CC[C@@]21C" ?
output: -0.88

input: Field request: z-score of subpopulation abundance | item: CC(C)COCC(CN(Cc1ccccc1)c1ccccc1)N1CCCC1 (stereo unspecified) [Bepridil hydrochloride]
output: 0.92

input: Item under review: CC(C(=O)O)c1ccc2c(c1)[nH]c1ccc(Cl)cc12 (stereo unspecified) . Reported z-score of subpopulation abundance?
output: -0.81

input: Fill in the blank: the reported z-score of subpopulation abundance of O=C(O[C@@H]1C[C@@H]2C[C@H]3C[C@H](C1)N2CC3=O)c1c[nH]c2ccccc12 [Dolasetron Mesylate] is ____.
output: 0.01

input: Given the entry "O=c1c(-c2ccc(O)cc2)coc2c([C@@H]3O[C@H](CO)[C@@H](O)[C@H](O)[C@H]3O)c(O)ccc12" , report its measured z-score of subpopulation abundance.
output: 0.12

input: // returns reported z-score of subpopulation abundance for input "O=c1cc(-c2ccc(O)c(O)c2)oc2cc(O)cc(O)c12"
output: 0.05

input: Look at this compound and give its reported z-score of subpopulation abundance. "CCC(=O)c1c(O)cc(O)cc1O"
output: -0.08

input: Returns the measured z-score of subpopulation abundance for the input compound. Input: "CC(=O)OCC1=C(C(=O)O)N2C(=O)[C@@H](NC(=O)CSc3ccncc3)[C@H]2SC1"
output: 0.25

input: Data request, read-out z-score of subpopulation abundance, for Cc1c(-c2ccc(O)cc2)n(Cc2ccc(OCCN3CCCCCC3)cc2)c2ccc(O)cc12 [Bazedoxifene HCl]
output: -0.15

input: Record request: z-score of subpopulation abundance value, item CCn1cc(C(=O)O)c(=O)c2cc(F)c(N3CCNC(C)C3)c(F)c21 (stereo unspecified) [Lomefloxacin HCl]
output: 1.38

input: Suppose we examine the compound "Cc1cc2c(s1)Nc1ccccc1N=C2N1CCN(C)CC1" ; what z-score of subpopulation abundance value has been reported?
output: 0.07

input: Any idea what its z-score of subpopulation abundance is? The compound is C[C@H](NCc1ccc(OCc2cccc(F)c2)cc1)C(N)=O [Safinamide]
output: 0.72

input: Which z-score of subpopulation abundance value is on record for "C[C@H](Nc1ncnc2nc[nH]c12)c1cc2cccc(Cl)c2c(=O)n1-c1ccccc1" ?
output: 0.95

input: Which z-score of subpopulation abundance value is on record for "CCS(=O)(=O)CCn1c([N+](=O)[O-])cnc1C" ?
output: 0.09

input: So what's the measured z-score of subpopulation abundance for this one? COc1cccc2c1C(=O)c1c(O)c3c(c(O)c1C2=O)C[C@@](O)(C(=O)CO)C[C@@H]3O[C@H]1C[C@H](N)[C@@H](O)[C@H](C)O1 [Epirubicin HCl]
output: 2.87

input: Item under review: Clc1ccc(COC(Cn2ccnc2)c2ccc(Cl)cc2Cl)cc1 (stereo unspecified) [Econazole nitrate] . Reported z-score of subpopulation abundance?
output: 6.46
